So I've got a bunch of molecules here, and I need their Progesterone Receptor [Progesterone = 100%] values.
Biological target: Progesterone Receptor (Oryctolagus cuniculus, UniProt P06186)
Construct: receptors in the cytosol from animal target organs; from tissue; host or cells: uterus cytosol of estradiol-primed rabbit
Sequence (P06186 whole entry): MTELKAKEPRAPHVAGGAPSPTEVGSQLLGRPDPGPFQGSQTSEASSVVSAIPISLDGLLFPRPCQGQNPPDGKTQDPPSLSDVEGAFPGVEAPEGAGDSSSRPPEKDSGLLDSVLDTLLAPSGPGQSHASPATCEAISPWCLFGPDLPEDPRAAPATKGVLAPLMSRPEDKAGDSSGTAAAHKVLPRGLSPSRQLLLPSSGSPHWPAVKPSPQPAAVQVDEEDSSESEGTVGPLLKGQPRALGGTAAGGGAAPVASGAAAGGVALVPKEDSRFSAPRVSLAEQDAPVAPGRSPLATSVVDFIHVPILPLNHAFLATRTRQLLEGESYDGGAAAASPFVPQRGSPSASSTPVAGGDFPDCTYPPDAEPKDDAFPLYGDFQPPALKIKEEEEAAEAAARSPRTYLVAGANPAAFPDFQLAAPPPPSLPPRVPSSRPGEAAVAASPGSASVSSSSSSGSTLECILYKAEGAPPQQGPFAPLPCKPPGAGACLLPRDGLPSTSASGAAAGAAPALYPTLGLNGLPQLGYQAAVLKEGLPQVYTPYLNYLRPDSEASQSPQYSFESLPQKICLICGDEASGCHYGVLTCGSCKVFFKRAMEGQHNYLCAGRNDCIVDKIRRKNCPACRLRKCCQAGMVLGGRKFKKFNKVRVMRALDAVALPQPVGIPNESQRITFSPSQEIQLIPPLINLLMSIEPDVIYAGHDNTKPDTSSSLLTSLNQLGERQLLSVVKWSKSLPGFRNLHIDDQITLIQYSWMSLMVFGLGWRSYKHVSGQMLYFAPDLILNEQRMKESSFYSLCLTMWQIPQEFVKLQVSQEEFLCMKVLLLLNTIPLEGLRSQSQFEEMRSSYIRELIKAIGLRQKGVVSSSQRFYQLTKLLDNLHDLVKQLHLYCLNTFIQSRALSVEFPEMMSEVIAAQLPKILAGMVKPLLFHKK
Experiment: Receptor binding affinity, competitive binding of 3H-ORG 2058 tracer in uterus cytosol
Details: relative binding affinity; uterus cytosol of the estradiol-primed rabbit; tracer 3H-ORG 2058; reference Progesterone = 100%
Express your answer in %, writing the number without its unit.

Reported Progesterone Receptor [Progesterone = 100%], molecule CC12CC(c3ccc(C=NO)cc3)C3=C4CCC(=O)C=C4CCC3C1CCC2(O)COCC(F)(F)F (stereo not shown) : ____
177

Sample COC[C@]1(OC)CC[C@H]2[C@@H]3CCC4=CC(=O)CCC4=C3[C@@H](c3ccc(/C=N/O)cc3)C[C@@]21C — what was its Progesterone Receptor [Progesterone = 100%]?
302

Looking for the measured Progesterone Receptor [Progesterone = 100%] of COCC1(OC)CCC2C3CCC4=CC(=O)CCC4=C3C(c3ccc(C=NO)cc3)CC21C (stereo not shown) , can you help?
126

Quick check: Progesterone Receptor [Progesterone = 100%] of CC#C[C@]1(O)CC[C@H]2[C@@H]3CCC4=CC(=O)CCC4=C3[C@@H](c3ccc(N(C)C)cc3)C[C@@]21C [Ru 38 486, reference compound] ?
685
